Values compiled from patent US20190016812A1.

Recorded % inhibition of ligand receptor interaction values for a group of binders are listed next.
biological target: T1, human TNFSF9 (R&D Systems; #2295-4L-025/CF) (human, UniProt P41273 71-254, limits assumed); experiment: MSD ELISA: TNFSF9 + 1 ug/mL antibody, binding to coated TNFRSF9
T1 construct: also called TNFSF9 (ligand); TNFSF9 ligand
T1 sequence (P41273 71-254 limits assumed): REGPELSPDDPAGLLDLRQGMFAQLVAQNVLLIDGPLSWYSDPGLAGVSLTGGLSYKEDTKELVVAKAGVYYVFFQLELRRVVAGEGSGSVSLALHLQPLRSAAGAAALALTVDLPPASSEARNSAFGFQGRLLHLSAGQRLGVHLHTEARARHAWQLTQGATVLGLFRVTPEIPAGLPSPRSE
measurement.type: % inhibition of ligand receptor interaction (%)

binder="SC113.219 (antibody, V domains shown) VH: QVQLKQSGAELVRPGASVKLSCRASGYTFTDFYINWVKQRPGQGLEWIARIYPGSGNTHYNENFKGKATLTAEKSSSTAYMQLSSLTSEDSAVYFCAREVWDAMDHWGQGTSVTVSS VL: SIVMTQSPKSMSISVGERVTLSCKASENVGTYVSWYQQKPEQSPKLLIYGASNRYTGVPDRFTGSGSSAEFTLTISSVQAEDLADYYCGQSSSFPIFTFGTGAKLEIK" experimental_value=-37
binder="SC113.36 (antibody, mouse IgG1, V domains shown, mouse IgG1) VH: QVQLKESGPDLVAPSQSLSITCTVSGFSLTSYGVHWVRQPPGKGLEWLGVIWAGGFTNYNSALMSRLSISKDNSKSQVFLKMSSLQTDDTAMYYCVREKDYRYSHYFDYWGQGTTLTVSS VL: DIVMSQSPSSLAVSVGEKVTLSCKSSLSLLYSSNQENYLAWYQQKPGQSPKLLIYWASTRESGVPDRFTGSGSGTDFTLTISSVKAEDLAVYYCQQYYSYPRTFGGGTKLEIK" experimental_value=23
binder="SC113.14 (antibody, mouse IgG2a, V domains shown, mouse IgG2a) VH: QVQLQQSGAELVKPGASVKLSCKASGYTFTEYTIHWVKQKSGQGLEWIGWFYPGSGSLKFNEKFKDKATLTADISSNTVYMELSRLTSEDSAVYFCARHEDFFYFDSYTMDYWGQGTSVTVSS VL: QIVLTQSPAIMSASPGEKVTLTCSASSSVSSSYLYWYQQKPGSSPKLWIYSTSKLSSGVPARFSGSGSGTSYSLTISSMEAEDAASYFCHQWSTYPWTFGGGTKLEIK" experimental_value=-34
